# Lookup of reported cytotoxicity at 70.5 h keyed by entry
Experiment Description: Human HepG2 cell viability assay in 384 well format
Type: toxicity, cell-based
Design: dose 125 nL, time 70.5 hour; concentration not given beside the values
Condition Set: HepG2 cells, read-out: Inhibition

{"Molecule": "COc1c(CNC(c2ccc(F)cc2)C(C)(C)C)c(C)nn1C (stereo unspecified)", "cytotoxicity at 70.5 h / %": 3.66}
{"Molecule": "O=C(c1ccncc1)N1CCCn2c(CN3CCCCC3)nnc2C1", "cytotoxicity at 70.5 h / %": -8.6}
{"Molecule": "Cc1cnc(Nc2nccnc2C2CCN(C)CC2)s1", "cytotoxicity at 70.5 h / %": -19.6}
{"Molecule": "CC(=O)NCC(=O)N1CCC2(CC1)C(=O)N(CC1CC1)c1ccccc12", "cytotoxicity at 70.5 h / %": -11.7}
{"Molecule": "CCOCCN1CCN(CC(O)c2ccc(C(F)(F)F)cc2)CC1 (stereo unspecified)", "cytotoxicity at 70.5 h / %": -0.521}
{"Molecule": "O=C(COC1CCCCC1)N1CCN(C(=O)Cc2ccccn2)CC1", "cytotoxicity at 70.5 h / %": -6.92}
{"Molecule": "CN(C(=O)CCc1nc(C2CC2)no1)c1cc(C#N)c2ccccc2n1", "cytotoxicity at 70.5 h / %": 0.74}
{"Molecule": "O=C(NC1CC1)c1nc2c(s1)CCCN2c1ccccc1", "cytotoxicity at 70.5 h / %": -6.79}
{"Molecule": "CCCN1CCCC2(CCN(C(=O)CCCn3cncn3)C2)C1=O (stereo unspecified)", "cytotoxicity at 70.5 h / %": -4.88}
{"Molecule": "CC(C)c1cc(NCC2(N(C)C)CCCC2)ncn1", "cytotoxicity at 70.5 h / %": -2.85}
{"Molecule": "CN(C)S(=O)(=O)NCC(Cc1cccc(F)c1)N1CCNC1=O (stereo unspecified)", "cytotoxicity at 70.5 h / %": -2.09}
{"Molecule": "CC(C)NC(=O)c1ccc2c(c1)nc1n2CCN(Cc2ccccc2)C1", "cytotoxicity at 70.5 h / %": -12.9}
{"Molecule": "O=C(c1cncc(NCC2COc3ccccc3C2)n1)N1CCCCC1 (stereo unspecified)", "cytotoxicity at 70.5 h / %": 0.974}
{"Molecule": "CNC(=O)[C@@H](c1ccccc1)N1CCC[C@H]1C(=O)NCc1ccccn1", "cytotoxicity at 70.5 h / %": -6.43}
{"Molecule": "Cc1cccc(NC(=O)CCNCc2c(C)nn(C)c2N(C)C)n1", "cytotoxicity at 70.5 h / %": 2.77}
{"Molecule": "COc1ccc(-c2noc(C(CC(C)C)N3CCCCC3=O)n2)cn1 (stereo unspecified)", "cytotoxicity at 70.5 h / %": -0.898}
{"Molecule": "N#CCCN(CCC#N)C(=O)COC1CCCCC1", "cytotoxicity at 70.5 h / %": -6.88}
{"Molecule": "CCN1C(=O)C2(CCCCC2)NC12CCSCC2", "cytotoxicity at 70.5 h / %": -7.61}
{"Molecule": "Cc1cc(C)n(CC(=O)N2CCC(NS(=O)(=O)c3ccccc3)CC2)n1", "cytotoxicity at 70.5 h / %": -5.45}
{"Molecule": "O=C(C1CCOC1)N1C[C@H]2CN(Cc3cccnc3)C(=O)[C@H]2C1 (stereo partly specified)", "cytotoxicity at 70.5 h / %": 11.7}
{"Molecule": "O=C(c1ccnnc1)N1CCC2(CC1)CC(N1CCOCC1)C2", "cytotoxicity at 70.5 h / %": 33.7}
